tested on: HCT-116 colon; assay: NCI-60 one-dose screen, 48 h (100 = growth as untreated, 0 = no growth, -100 = all killed); conditions: 10 µM unless noted
The panel holds about 83,000 compounds, 20% with a hit somewhere; the sample as a whole holds those more often.
Outcome: Yes for growth of at least -30%; No for anything lower.

Some entries whose results are on file:
Compound	Class name
O=C(NNc1ccccc1)n1c(=O)c2ccccc2c(=O)n1-c1ccccc1	Yes
C=Cn1cc(C(=O)O)c(=O)c2cc(F)c(N3CCN(c4nccc(-c5nccs5)n4)CC3)cc21	No
CCN1C(=O)/C(=N\N=C(/C)c2ccc3c(c2)Nc2ccccc2S3)c2cc(Cl)ccc21	Yes

Q) Would you say COc1cc2c(c(OC)c1OC)C(=O)CC(c1cccc(NC(=O)[C@@H](N)CC(C)C)c1)O2 (some centres undefined) shows growth at minimum -30%?
A) Yes

###

tested on: UACC-62 melanoma; experiment: NCI-60 one-dose screen, 48 h (100 = growth as untreated, 0 = no growth, -100 = all killed); details: 10 µM unless noted
The panel holds about 83,000 compounds, 20% with a hit somewhere; the sample as a whole holds those more often.
Recorded metric: growth (%)
Return type: number; implicit unit %.

Q) Please state recorded growth (tested on UACC-62 melanoma) of Cc1ccc(C2=NN(c3nc(-c4cc5ccccc5oc4=O)cs3)C(c3ccc(C)cc3)C2)cc1 (centres undefined)
A) 91.2

Q) Try this compound too: S=C(Nc1ccc(OCc2nc3ccccc3[nH]2)cc1)NC1CCCCC1
A) 77.6

Q) Try this compound next: Cn1cc(-c2cc(N)n3nc(-c4c[nH]c5ccccc45)cc3n2)c2cc(Br)cnc21
A) -95

Q) Would you kindly repeat that for Cc1ccc([C@H]2C(C(=O)c3ccc(Cl)cc3)C3(N[C@@H]2c2ccccc2)C(=O)Nc2ccc(Br)cc23)cc1 (some centres undefined) ?
A) 45.9

Q) How about COc1cc(-c2nc3cc(Cl)c(Cl)cc3[nH]2)ccc1OCc1nnc(-c2cccs2)o1 ?
A) 21.3

Q) Same read-out for C=CC[N+](C)(C)CCn1c2ccccc2c2nc3cc(C)c(C)cc3nc21 ?
A) 97.1

Q) What would you report for CCCCCCCCOc1cccc(S(=O)(=O)Nc2ccc(C)cc2C(=O)O)c1 ?
A) 85.4

Q) Now consider Cc1nc(Nc2ccccn2)sc1C(=O)CC(SCC(=O)Nc1ccc(Cl)cc1)c1ccccc1F (centres undefined) and answer again.
A) -10.6

Q) Same question, O=c1[nH]c2ccccc2cc1CSc1cccc(Nc2nccc(-c3ccc4ccccc4c3)n2)c1 this time
A) 95.2

###

Items are presented alongside their recorded growth.
system: MOLT-4 leukemia; assay: NCI-60 one-dose screen, 48 h (100 = growth as untreated, 0 = no growth, -100 = all killed); conditions: 10 µM unless noted
About 83,000 compounds went through this panel and 20% of them were active in at least one assay; those are over-represented in the sample as a whole.
Provide only the numeric value, understood in %.

Known growth results, listed for orientation:
Molecule	Observed measurement
O=C(N/N=C/c1ccc(-c2ccc(O)cc2)o1)c1[nH]c2ccc(Br)cc2c1-c1ccccc1	0.944
N#Cc1c(-c2ccccc2Cl)cc(-c2c[nH]c3ccccc23)[nH]c1=O	34.7
O=C1CC(Sc2n[nH]c(-c3ccncc3)n2)C(=O)N1c1ccc(Br)cc1 (stereo not drawn)	115
CCCSc1nc(Nc2ccc(S(N)(=O)=O)cc2)c(C#N)c(-c2ccc(Cl)cc2)n1	50.4
C/C(=N\N=C1/C(=O)Nc2ccccc21)c1ccc2c(c1)Nc1ccccc1S2	11.4
Cc1ccc(S(=O)(=O)c2nc(S(=O)(=O)c3ccc(C)cc3)c(N3CCN(C)CC3)s2)cc1	30
C=C1CCC2C3(C)COC(c4ccco4)OC3CCC2(C)C1CC(Sc1ccccc1)C1=CCOC1=O (stereo not drawn)	16.9
COc1ccc(-c2ccc(SCC(=O)Nc3ccc(S(N)(=O)=O)cc3Br)nn2)cc1	93.7

Q) Given CN(C)c1ccnc(CNCCSC2(c3ccc(C(F)(F)F)cc3)c3ccccc3CCc3ccccc32)c1 , state its recorded growth.
A) -20.9

Q) Same question for CCN1C(=O)/C(=N\N=C(/C)c2ccc3c(c2)Nc2ccccc2S3)c2cc(Cl)ccc21 please.
A) 37.4

Q) For CCCCCCn1c(O)c(N=Nc2nc(-c3cc4ccccc4oc3=O)cs2)c2ccccc21 then?
A) 23.4

Q) Field entry: COc1ccc(NC(=O)Nc2ccc(OCc3ccc(F)cc3)cc2)cc1
A) 94.8

Q) How about this molecule: Cn1cc(-c2cc3nc(-c4cn(C)c5ncccc45)cc(N)n3n2)c2cc(Cl)ccc21
A) -45.7

Q) Another molecule: COc1cc2c(c(OC)c1OC)C(=O)CC(c1cccc(NC(=O)c3cc([N+](=O)[O-])ccc3Cl)c1)O2 (stereo not drawn)
A) 14.4

Q) // same read-out, input: C=CC[N+](C)(C)CCn1c2ccccc2c2nc3cc(C)c(C)cc3nc21
A) 116

Q) Would you kindly repeat that for Cc1ccc(-c2nc(C#N)c(S(=O)(=O)N3CCN(S(=O)(=O)c4ccc(Cl)cc4)CC3)o2)cc1 ?
A) 75.7

Q) What do we get for COc1ccc2[nH]cc(-c3nc(N)nnc3-c3cn(C)c4ncccc34)c2c1 ?
A) 41.3

Q) Would you mind doing Cc1ncsc1-c1ccc(CNC(=O)[C@@H]2C[C@@H](O)CN2C(=O)[C@@H](NC(=O)C2(F)CC2)C(C)(C)C)c(OCCOCCOCCOCCOc2nc(Nc3cc(S(C)(=O)=O)ccc3N[C@@H](c3cccc4c3OC(F)(F)O4)c3ncccc3Cl)nc(N3CCNCC3)n2)c1 as well?
A) -5.45

###

tested on: SK-MEL-2 melanoma; assay: NCI-60 one-dose screen, 48 h (100 = growth as untreated, 0 = no growth, -100 = all killed); details: 10 µM unless noted
This is part of a sample that, as a whole, favours compounds with a hit. Of some 83,000 tested, about 20% had one in any assay.
Recorded metric: growth (%)
Expressed in %, but write only the number.

Compound	Recorded metric	Unit tag	Observed measurement
CC(=O)Nc1ccc(C(=O)NC(=S)Nc2ccc(S(N)(=O)=O)cc2)cc1	growth	%	97.1
O=C1C(=Nc2ccc(F)c(Cl)c2)c2cccc3cccc1c23	growth	%	97.5
CC(=O)c1cc(C(=O)c2ccccc2)n2c1ccc1ccccc12	growth	%	117
COc1cc2oc(-c3cccc(C(=O)Nc4ccc(Cl)cc4)c3)cc(=O)c2c(OCC(=O)N[C@@H](Cc2ccccc2)C(=O)O)c1OC	growth	%	116
O=c1c2ccccc2nc(-c2ccccc2)n1/N=C/c1ccc2ccccc2c1	growth	%	116

Q) Bench note: what growth did COc1ccc(Cc2nn(CC(=O)N/N=C/c3ccc(F)cc3)c(=O)c3c(C)noc23)cc1 show?
A) 70.5

Q) Next entry: Cc1ccc(-c2nnc3ccc(N/N=C/c4ccccc4)nn23)cc1
A) 102

Q) CCCn1cc(-c2nc(Nc3ccc(C(=O)NCCCCNc4cccc5c4C(=O)N(C4CCC(=O)NC4=O)C5=O)cc3)nc3[nH]ccc23)cn1 (centres undefined) ?
A) 10.4

Q) What do you get for O=C(NNc1nc2cc(F)ccc2n2c(CN3CC4CNCC4C3)ccc12)c1ccncn1 (centres undefined) ?
A) 42.7

###

tested on: KM12 colon; assay: NCI-60 one-dose screen, 48 h (100 = growth as untreated, 0 = no growth, -100 = all killed); settings: 10 µM unless noted
The panel holds about 83,000 compounds, 20% with a hit somewhere; the sample as a whole holds those more often.
Recorded metric: growth (%)
Report the figure in % without appending any unit label.

Consider the worked cases shown below.
Molecule	growth, %
CC(=O)OC[C@@]1(C)C2CC[C@]3(C)C(CC=C4C5CC(C)(C)CC[C@]5(C(=O)Nc5ccc(C)cc5)CC[C@]43C)[C@@]2(C)C[C@@H](OC(C)=O)[C@@H]1OC(C)=O (stereo partly drawn)	51.9
Cc1ccc(C(SCCNCc2cc(N(C)C)ccn2)(c2ccccc2)c2ccccc2)cc1	-40.1
Cc1cc(N=C2NC(=O)CS2)n[nH]1	101
COc1cc2c(c(OC)c1OC)C(=O)CC(c1cccc(NC(=O)c3cc(NC(=O)[C@H](C)N)ccc3Cl)c1)O2 (stereo partly drawn)	41.7
COc1cc2c(c(OC)c1OC)C(=O)CC(c1cccc(NC(=O)c3cc(NC(=O)[C@H](CO)NC(=O)OC(C)(C)C)ccc3Cl)c1)O2 (stereo partly drawn)	14.5
COc1cc(OC)c2c3nc4cc(C)c(C)cc4nc3n(CCN(C)C)c2c1	84.7
C#CCOc1cc(N(CC)CC)ccc1C(C(=O)NC(C)(C)C)N(C(=O)C1CCc2cc(F)ccc2O1)c1ccc(F)c(Cl)c1 (stereo not drawn)	57.5

Proceed to the following item.
Q) Tell me the measured growth of COc1ccc(NC(=O)c2sc3nc(C(C)C)ccc3c2N)cc1 , please.
A) 78.2
